experiment_notes: amyloid nucleation score (Sup35N fusion, yeast selection) (log enrichment); library NNK2; higher = more nucleation; inactive = no reads after selection;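 also: zero at mode of non-aggregating sequences after 7 days selection at 30°C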
Measured amyloid nucleation score, listed per entry for reference.
// keep it numeric: no unit symbol after the value

[
  {
    "substance": "VDRKWRKT",
    "amyloid nucleation score": -0.373
  },
  {
    "substance": "FFHYVNAQVRGWLCTVYIIR",
    "amyloid nucleation score": -0.574
  },
  {
    "substance": "DVNISASNEVALIASDRLLC",
    "amyloid nucleation score": -0.149
  }
]

Note down amyloid nucleation score recorded for "LAFRFDVLKWINA"
-0.263

Note down amyloid nucleation score recorded for "SLTTLTAVHSCFRLNAWLYF"
0.477

Note down amyloid nucleation score recorded for "SITMFQCQRVCASLQYVTGT"
6.97

Note down amyloid nucleation score recorded for "WSCYKNWG"
-1.13

Note down amyloid nucleation score recorded for "LWQLPIILWFLRNCVMRNPA"
-0.723

Note down amyloid nucleation score recorded for "RCERWCPWNFHNQAL"
0.449

Note down amyloid nucleation score recorded for "PCIRPLDKVCLIFFTGIFLW"
-1.47

Note down amyloid nucleation score recorded for "SVYLNPHPTLMGNQSVLKLI"
1.29

Note down amyloid nucleation score recorded for "LLWLPR"
0.376

Note down amyloid nucleation score recorded for "KLKCHMSESLKWIGAVKSRR"
0.776
